Cited source: PubChem BioAssay AID2060892

Test system: HOP-62 complex spheroids with HUVEC/MSC, viability
Assay: Anticancer human tumor HOP-62 cell line growth inhibition [RAS];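 further: spheroids exposed to agents for seven days before readout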
Details: curve of first compound; second compound 0.003 µM
For each record, write down the corresponding pIC50.
Answers are plain numbers, as −log10 of the molar value.

Solved cases below.
CC1(O)CCCC1n1c(=O)c(C(F)F)cc2cnc(NC3CCN(S(C)(=O)=O)CC3)nc21 (configuration not stated) + CCn1c(-c2cc(N3CCN(C)CC3)cnc2C(C)OC)c2c3cc(ccc31)-c1csc(n1)CC(NC(=O)C1CC1C)C(=O)N1CCCC(N1)C(=O)OCC(C)(C)C2 | 5.42
O=C(c1ccc(F)c(F)c1Nc1ccc(I)cc1F)N1CC(O)([C@@H]2CCCCN2)C1 + CCn1c(-c2cccnc2C(C)OC)c2c3cc(ccc31)N1CCOC(CC(NC(=O)C(C(C)C)N(C)C(=O)C3(F)CCN(C(=O)C#CC(C)(C)N(C)C)CC3)C(=O)N3CCCC(N3)C(=O)OCC(C)(C)C2)C1 | 6.06

I have this compound here, Nc1ccn(C2OC(CO)C(O)C2(F)F)c(=O)n1 (configuration not stated) + CCn1c(-c2cc(N3CCN(C)CC3)cnc2C(C)OC)c2c3cc(ccc31)-c1csc(n1)CC(NC(=O)C1CC1C)C(=O)N1CCCC(N1)C(=O)OCC(C)(C)C2 , and I need its recorded pIC50.
7.89
